# Test system: Plasmodium falciparum
# assay explanation: Antimalarial activity against chloroquine resistant trophozoites-stage Plasmodium falciparum INDO infected in human erythrocytes assessed as inhibition of parasite growth incubated for 12 hrs
# Type: functional, organism-based
# settings: Erythrocyte
pIC50: −log10 of the molar value.
Kindly return true if reported pIC50 is no lower than 5; return false if it is lower.

INSERT INTO results (cpd_smiles, assigned_category) VALUES
  ('O=C(Cn1nnc(-c2ccc([N+](=O)[O-])cc2)n1)N1CCN(c2ccnc3cc(Cl)ccc23)CC1', 'true'),
  ('O=C(Cn1nnc(-c2cccc([N+](=O)[O-])c2)n1)N1CCN(c2ccnc3cc(Cl)ccc23)CC1', 'true'),
  ('CC(C)c1ccc(-c2nnn(CC(=O)N3CCN(c4ccnc5cc(Cl)ccc45)CC3)n2)cc1', 'false'),
  ('O=C(Cn1nnc(-c2cccc(Cl)c2)n1)N1CCN(c2ccnc3cc(Cl)ccc23)CC1', 'true'),
  ('Fc1ccc(-c2nnn(CCCN3CCN(c4ccnc5cc(Cl)ccc45)CC3)n2)cc1', 'true'),
  ('Clc1ccc2c(N3CCN(CCCn4nnc(-c5ccc(Br)cc5)n4)CC3)ccnc2c1', 'true');

====

# assay explanation: Selectivity index, ratio of CC50 for human HEK293 cells to IC50 of chloroquine resistant Plasmodium falciparum INDO infected in human erythrocytes
# Type: toxicity, cell-based
# settings: read-out: Ratio CC50/IC50
Measured selectivity ratio values are reported for all entries that follow.
measured metric: selectivity ratio

INSERT INTO measurements (cpd_smiles, experimental_value) VALUES
  ('Cc1ccc(-c2nnn(CCCN3CCN(c4ccnc5cc(Cl)ccc45)CC3)n2)cc1', 63),
  ('Clc1ccc2c(N3CCN(CCCn4nnc(-c5ccc(Br)cc5)n4)CC3)ccnc2c1', 178),
  ('CC(C)c1ccc(-c2nnn(CC(=O)N3CCN(c4ccnc5cc(Cl)ccc45)CC3)n2)cc1', 60.1),
  ('O=C(Cn1nnc(-c2cccc(F)c2)n1)N1CCN(c2ccnc3cc(Cl)ccc23)CC1', 47.3),
  ('O=C(Cn1nnc(-c2ccc([N+](=O)[O-])cc2)n1)N1CCN(c2ccnc3cc(Cl)ccc23)CC1', 179),
  ('O=C(Cn1nnc(-c2ccc(Cl)cc2)n1)N1CCN(c2ccnc3cc(Cl)ccc23)CC1', 28.7),
  ('O=[N+]([O-])c1cccc(-c2nnn(CCCN3CCN(c4ccnc5cc(Cl)ccc45)CC3)n2)c1', 24.7),
  ('O=C(Cn1nnc(-c2cccc(Br)c2)n1)N1CCN(c2ccnc3cc(Cl)ccc23)CC1', 44.5),
  ('Clc1ccc2c(N3CCN(CCCn4nnc(-c5cccc(Br)c5)n4)CC3)ccnc2c1', 56.8),
  ('O=C(Cn1nnc(-c2cccc(Cl)c2)n1)N1CCN(c2ccnc3cc(Cl)ccc23)CC1', 67.7),
  ('Clc1cccc(-c2nnn(CCCN3CCN(c4ccnc5cc(Cl)ccc45)CC3)n2)c1', 20.1),
  ('CC(C)c1ccc(-c2nnn(CCCN3CCN(c4ccnc5cc(Cl)ccc45)CC3)n2)cc1', 47.8),
  ('COc1ccc(-c2nnn(CCCN3CCN(c4ccnc5cc(Cl)ccc45)CC3)n2)cc1OC', 67),
  ('Fc1ccc(-c2nnn(CCCN3CCN(c4ccnc5cc(Cl)ccc45)CC3)n2)cc1', 99),
  ('O=C(Cn1nnc(-c2ccc(Br)cc2)n1)N1CCN(c2ccnc3cc(Cl)ccc23)CC1', 35.6),
  ('COc1cccc(-c2nnn(CCCN3CCN(c4ccnc5cc(Cl)ccc45)CC3)n2)c1', 44.6),
  ('O=C(Cn1nnc(-c2cccc([N+](=O)[O-])c2)n1)N1CCN(c2ccnc3cc(Cl)ccc23)CC1', 223),
  ('Fc1cccc(-c2nnn(CCCN3CCN(c4ccnc5cc(Cl)ccc45)CC3)n2)c1', 28.1),
  ('Clc1ccc(-c2nnn(CCCN3CCN(c4ccnc5cc(Cl)ccc45)CC3)n2)cc1', 139),
  ('O=C(Cn1nnc(-c2ccc(F)cc2)n1)N1CCN(c2ccnc3cc(Cl)ccc23)CC1', 32.2);
